# Lookup of reported Agonist Activity (%) (M4 Receptors-Stimulating Activity) keyed by entry
- Assay System: human m4 receptor (Homo sapiens, UniProt P08173)
- Construct: expressed in transfected cells
- Sequence (P08173 whole entry): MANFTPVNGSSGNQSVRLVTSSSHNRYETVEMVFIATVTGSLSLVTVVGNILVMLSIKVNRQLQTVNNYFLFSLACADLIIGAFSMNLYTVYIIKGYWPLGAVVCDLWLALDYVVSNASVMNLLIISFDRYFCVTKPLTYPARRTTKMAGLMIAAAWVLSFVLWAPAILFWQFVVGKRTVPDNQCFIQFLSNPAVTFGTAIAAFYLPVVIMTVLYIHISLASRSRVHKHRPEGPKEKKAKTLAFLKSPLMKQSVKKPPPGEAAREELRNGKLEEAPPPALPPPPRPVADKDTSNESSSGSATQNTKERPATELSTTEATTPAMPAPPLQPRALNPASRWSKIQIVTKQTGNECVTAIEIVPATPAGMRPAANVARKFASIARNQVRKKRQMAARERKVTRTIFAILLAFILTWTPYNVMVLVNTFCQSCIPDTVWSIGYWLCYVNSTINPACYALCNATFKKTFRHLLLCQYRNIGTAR
- Assay type: cell-based
- Condition Parameters: 0.01 µM
Please state the figure in %; there is no need to write the unit.

For orientation, consider the following solved cases.
| Query Smiles | Unit Abbreviation | Experimental Value |
| --- | --- | --- |
| COC(=O)N1CCC(N2CCC(n3c(=O)n(CC(C)=O)c4ccccc43)CC2)CC1 | % | 97 |
| CCOC(=O)N1CCC(N2CCC(n3c(=O)n(S(C)(=O)=O)c4ccccc43)CC2)CC1 | % | 94 |
| COC(=O)Cn1c(=O)n(C2CCN(C3CCN(C(=O)OC)CC3)CC2)c2ccccc21 | % | 92 |

INPUT: Fill in reported Agonist Activity (%) (M4 Receptors-Stimulating Activity) for this entry: COC(=O)N1CCC(N2CCC(n3c(=O)n(CCN)c4ccccc43)CC2)CC1
OUTPUT: 95

INPUT: Quick one: give measured Agonist Activity (%) (M4 Receptors-Stimulating Activity) for CCCCn1c(=O)n(C2CCN(C3CCN(C(=O)OC)CC3)CC2)c2ccccc21
OUTPUT: 101

INPUT: Name the recorded Agonist Activity (%) (M4 Receptors-Stimulating Activity) of the item COC(=O)N1CCC(N2CCC(n3c(=O)n(C(C)=O)c4ccccc43)CC2)CC1 in your answer.
OUTPUT: 95

INPUT: Read off the recorded Agonist Activity (%) (M4 Receptors-Stimulating Activity) for C=CCn1c(=O)n(C2CCN(C3CCN(C(=O)OC)CC3)CC2)c2ccccc21
OUTPUT: 96

INPUT: // Input: COC(=O)N1CCC(N2CCC(n3c(=O)n(C)c4ccccc43)CC2)CC1 . Output its Agonist Activity (%) (M4 Receptors-Stimulating Activity) only.
OUTPUT: 96

INPUT: Quick one: give measured Agonist Activity (%) (M4 Receptors-Stimulating Activity) for COC(=O)N1CCC(N2CCC(n3c(=O)n(CC(F)(F)F)c4ccccc43)CC2)CC1
OUTPUT: 90

INPUT: Fill in Agonist Activity (%) (M4 Receptors-Stimulating Activity) for record C#CCn1c(=O)n(C2CCN(C3CCN(C(=O)OC)CC3)CC2)c2ccccc21
OUTPUT: 91
